protocol: Single-dose intravenous and oral pharmacokinetic study in rats
Assay type: in vivo, Sprague-Dawley (SD) rats
condition-summary: Sprague-Dawley, rat; male SD rats, IV 2 mg/kg, plasma
measurement-type: clearance (mL/min/kg)
Numbers only here, please. The scale is mL/min/kg.

-- ask So what's the measured clearance for this one? CC(=O)c1c(C)c2c(n(C3CCCC3)c1=O)=NC(Nc1ccc(N3CCN(S(=O)(=O)NCCN)CC3)cn1)NC=2 (stereo not shown)
-- reply 56.7

====

experimental-target: CDK9/cyclin T (Homo sapiens, UniProt P50750)
Sequence (P50750 whole entry): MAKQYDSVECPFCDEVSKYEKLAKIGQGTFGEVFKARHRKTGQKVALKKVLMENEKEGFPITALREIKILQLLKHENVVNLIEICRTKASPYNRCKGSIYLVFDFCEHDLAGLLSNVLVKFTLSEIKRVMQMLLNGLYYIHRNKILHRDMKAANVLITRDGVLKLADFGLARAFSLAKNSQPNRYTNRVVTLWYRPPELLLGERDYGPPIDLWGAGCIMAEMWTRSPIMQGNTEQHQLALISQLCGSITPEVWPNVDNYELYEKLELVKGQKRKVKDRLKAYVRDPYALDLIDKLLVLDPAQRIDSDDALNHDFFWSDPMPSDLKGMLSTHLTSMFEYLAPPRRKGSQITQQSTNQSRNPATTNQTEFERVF
Sequence (O60563 whole entry partner): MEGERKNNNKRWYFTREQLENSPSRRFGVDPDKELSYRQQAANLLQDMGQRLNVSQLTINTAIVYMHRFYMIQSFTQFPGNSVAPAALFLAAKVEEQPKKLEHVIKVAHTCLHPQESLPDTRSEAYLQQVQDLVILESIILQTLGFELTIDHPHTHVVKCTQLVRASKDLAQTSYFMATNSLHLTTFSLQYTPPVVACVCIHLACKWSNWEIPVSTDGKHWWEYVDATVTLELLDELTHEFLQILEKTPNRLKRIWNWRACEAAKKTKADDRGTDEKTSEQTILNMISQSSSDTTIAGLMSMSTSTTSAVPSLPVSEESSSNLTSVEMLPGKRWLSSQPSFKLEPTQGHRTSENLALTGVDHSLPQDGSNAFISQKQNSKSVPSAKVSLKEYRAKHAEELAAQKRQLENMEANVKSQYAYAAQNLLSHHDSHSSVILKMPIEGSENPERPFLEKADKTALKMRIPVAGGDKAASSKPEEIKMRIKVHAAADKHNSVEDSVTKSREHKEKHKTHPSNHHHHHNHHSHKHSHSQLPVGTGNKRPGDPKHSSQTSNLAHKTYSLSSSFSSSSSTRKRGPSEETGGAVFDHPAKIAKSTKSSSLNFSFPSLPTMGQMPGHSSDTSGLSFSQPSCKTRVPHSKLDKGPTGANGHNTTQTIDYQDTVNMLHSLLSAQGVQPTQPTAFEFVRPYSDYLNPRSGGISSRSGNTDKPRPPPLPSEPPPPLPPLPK
protocol: KinaseProfile radiometric protein kinase assay, CDK9/cyclin T
measurement-type: IC50

A selection of reference data follows.
- compound: "CC(=O)c1c(C)c2cnc(Nc3ccc(N4CCN(S(=O)(=O)NCC(C)(C)N)CC4)cn3)nc2n(C2CCCC2)c1=O [Compound 2]"
  IC50: "> 1000 nM"
- compound: "CC(=O)c1c(C)c2cnc(Nc3ccc(N4CCN(S(=O)(=O)NCCCN)CC4)cn3)nc2n(C2CCCC2)c1=O [Compound 4]"
  IC50: "> 3000 nM"
- compound: "CC(=O)c1c(C)c2c(n(C3CCCC3)c1=O)=NC(Nc1ccc(N3CCN(S(=O)(=O)NCCN)CC3)cn1)NC=2 (stereo not drawn) [Compound 1]"
  IC50: "> 1000 nM"

-- ask Consider the compound CC(=O)c1c(C)c2cnc(Nc3ccc(N4CCN(S(=O)(=O)NCC(C)CN)CC4)cn3)nc2n(C2CCCC2)c1=O (stereo not drawn) [Compound 5] and give its measured IC50.
-- reply > 3000 nM

-- ask Need IC50 of CC(=O)c1c(C)c2cnc(Nc3ccc(N4CCN(S(=O)(=O)NCC(C)N)CC4)cn3)nc2n(C2CCCC2)c1=O (stereo not drawn) [Compound 3] , thanks.
-- reply > 3000 nM

-- ask IC50 lookup needed for CC(=O)c1c(C)c2cnc(Nc3ccc(N4CCN(S(=O)(=O)NCC(C)(C)CN)CC4)cn3)nc2n(C2CCCC2)c1=O [Compound 6] , thanks.
-- reply > 1000 nM

====

experimental-target: CDK6/cyclin D (Homo sapiens)
Sequence (Q00534 whole entry): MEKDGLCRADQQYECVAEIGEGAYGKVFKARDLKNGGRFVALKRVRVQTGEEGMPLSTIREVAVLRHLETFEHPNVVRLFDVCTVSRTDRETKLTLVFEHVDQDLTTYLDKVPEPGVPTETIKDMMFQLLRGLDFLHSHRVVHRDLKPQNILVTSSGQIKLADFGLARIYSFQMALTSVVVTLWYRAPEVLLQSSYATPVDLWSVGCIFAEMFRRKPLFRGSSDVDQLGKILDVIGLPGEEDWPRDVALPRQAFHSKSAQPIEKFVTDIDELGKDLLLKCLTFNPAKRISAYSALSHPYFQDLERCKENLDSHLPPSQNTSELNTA
Sequence (P30281 whole entry partner): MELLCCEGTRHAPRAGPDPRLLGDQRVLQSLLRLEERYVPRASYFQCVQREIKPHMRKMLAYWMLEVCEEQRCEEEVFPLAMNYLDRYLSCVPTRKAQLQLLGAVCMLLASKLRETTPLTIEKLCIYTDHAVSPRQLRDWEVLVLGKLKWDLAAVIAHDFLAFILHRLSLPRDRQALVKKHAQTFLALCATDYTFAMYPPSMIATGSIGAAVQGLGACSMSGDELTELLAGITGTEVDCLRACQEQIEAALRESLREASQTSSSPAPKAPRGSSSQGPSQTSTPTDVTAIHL
protocol: KinaseProfile radiometric protein kinase assay, CDK6/cyclin D
pIC50: −log10 of the molar value.
Parameter pIC50: see the listing below.

The examples below pair each entry with its known result.
- compound: "CC(=O)c1c(C)c2cnc(Nc3ccc(N4CCN(S(=O)(=O)NCC(C)N)CC4)cn3)nc2n(C2CCCC2)c1=O (stereo not drawn) [Compound 3]"
  measurement-type: "pIC50"
  observed: "> 7.00"
- compound: "CC(=O)c1c(C)c2cnc(Nc3ccc(N4CCN(S(=O)(=O)NCCCN)CC4)cn3)nc2n(C2CCCC2)c1=O [Compound 4]"
  measurement-type: "pIC50"
  observed: "> 7.30"
- compound: "CC(=O)c1c(C)c2c(n(C3CCCC3)c1=O)=NC(Nc1ccc(N3CCN(S(=O)(=O)NCCN)CC3)cn1)NC=2 (stereo not drawn) [Compound 1]"
  measurement-type: "pIC50"
  observed: "> 7.30"

-- ask Form field: reported pIC50 of CC(=O)c1c(C)c2cnc(Nc3ccc(N4CCN(S(=O)(=O)NCC(C)(C)CN)CC4)cn3)nc2n(C2CCCC2)c1=O [Compound 6]
-- reply > 7.00

-- ask Please report the recorded pIC50 for CC(=O)c1c(C)c2cnc(Nc3ccc(N4CCN(S(=O)(=O)NCC(C)(C)N)CC4)cn3)nc2n(C2CCCC2)c1=O [Compound 2] .
-- reply > 7.30

-- ask Look up pIC50: CC(=O)c1c(C)c2cnc(Nc3ccc(N4CCN(S(=O)(=O)NCC(C)CN)CC4)cn3)nc2n(C2CCCC2)c1=O (stereo not drawn) [Compound 5]
-- reply > 7.30
